Each recorded value in this set is attributed to patent US5117830A.

Molecular target: A1 adenosine receptors (Cavia porcellus)
Construct: The left atria from male guinea pigs were isolated; from tissue; host or cells: guinea pig left atrium (whole tissue in organ bath)
Sequence (P47745 whole entry): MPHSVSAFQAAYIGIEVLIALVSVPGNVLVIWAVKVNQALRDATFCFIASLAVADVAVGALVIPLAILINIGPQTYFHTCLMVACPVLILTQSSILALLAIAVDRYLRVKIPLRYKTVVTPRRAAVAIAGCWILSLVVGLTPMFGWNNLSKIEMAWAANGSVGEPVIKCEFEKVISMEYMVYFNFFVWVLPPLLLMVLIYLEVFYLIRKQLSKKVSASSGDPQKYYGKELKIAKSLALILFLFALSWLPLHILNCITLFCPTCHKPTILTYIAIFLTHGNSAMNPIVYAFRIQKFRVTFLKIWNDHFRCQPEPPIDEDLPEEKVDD
Assay: Antagonism of adenosine agonists in reducing force of contraction of guinea pig atrium (A1)
Settings: guinea pig atria
Procedure: The left atria from male guinea pigs were isolated, suspended between two punctate electrodes, and placed in a 20 ml organ bath that contained Krebs-Hensileit solution that was continuously gassed with 95% O2 +5% CO2 and maintained at 31° C. The resting tension was one gram. […] The force of contraction was recorded isometrically. The ability of the compounds to antagonize the effects of agonists was analyzed using modified Schild plots.
readout_type: competitive antagonism at adenosine receptors in the atria

CCC(Cc1cccs1)Nc1ncnc2c1ncn2C (stereo not shown) :: competitive antagonists
Cn1cnc2c(N[C@H]3C[C@H]4CC[C@@H]3C4)ncnc21 (relative stereo) [compound 0861, N^6-(endo-2-norbornyl)-9-MA] :: competitive antagonists
Cn1cnc2c(NC3CCCC3)ncnc21 :: competitive antagonists
CCC(CC)Nc1ncnc2c1ncn2C :: competitive antagonists
